Molecular target: Rho-associated protein kinase 2 (Homo sapiens, UniProt O75116)
Sequence (O75116 whole entry): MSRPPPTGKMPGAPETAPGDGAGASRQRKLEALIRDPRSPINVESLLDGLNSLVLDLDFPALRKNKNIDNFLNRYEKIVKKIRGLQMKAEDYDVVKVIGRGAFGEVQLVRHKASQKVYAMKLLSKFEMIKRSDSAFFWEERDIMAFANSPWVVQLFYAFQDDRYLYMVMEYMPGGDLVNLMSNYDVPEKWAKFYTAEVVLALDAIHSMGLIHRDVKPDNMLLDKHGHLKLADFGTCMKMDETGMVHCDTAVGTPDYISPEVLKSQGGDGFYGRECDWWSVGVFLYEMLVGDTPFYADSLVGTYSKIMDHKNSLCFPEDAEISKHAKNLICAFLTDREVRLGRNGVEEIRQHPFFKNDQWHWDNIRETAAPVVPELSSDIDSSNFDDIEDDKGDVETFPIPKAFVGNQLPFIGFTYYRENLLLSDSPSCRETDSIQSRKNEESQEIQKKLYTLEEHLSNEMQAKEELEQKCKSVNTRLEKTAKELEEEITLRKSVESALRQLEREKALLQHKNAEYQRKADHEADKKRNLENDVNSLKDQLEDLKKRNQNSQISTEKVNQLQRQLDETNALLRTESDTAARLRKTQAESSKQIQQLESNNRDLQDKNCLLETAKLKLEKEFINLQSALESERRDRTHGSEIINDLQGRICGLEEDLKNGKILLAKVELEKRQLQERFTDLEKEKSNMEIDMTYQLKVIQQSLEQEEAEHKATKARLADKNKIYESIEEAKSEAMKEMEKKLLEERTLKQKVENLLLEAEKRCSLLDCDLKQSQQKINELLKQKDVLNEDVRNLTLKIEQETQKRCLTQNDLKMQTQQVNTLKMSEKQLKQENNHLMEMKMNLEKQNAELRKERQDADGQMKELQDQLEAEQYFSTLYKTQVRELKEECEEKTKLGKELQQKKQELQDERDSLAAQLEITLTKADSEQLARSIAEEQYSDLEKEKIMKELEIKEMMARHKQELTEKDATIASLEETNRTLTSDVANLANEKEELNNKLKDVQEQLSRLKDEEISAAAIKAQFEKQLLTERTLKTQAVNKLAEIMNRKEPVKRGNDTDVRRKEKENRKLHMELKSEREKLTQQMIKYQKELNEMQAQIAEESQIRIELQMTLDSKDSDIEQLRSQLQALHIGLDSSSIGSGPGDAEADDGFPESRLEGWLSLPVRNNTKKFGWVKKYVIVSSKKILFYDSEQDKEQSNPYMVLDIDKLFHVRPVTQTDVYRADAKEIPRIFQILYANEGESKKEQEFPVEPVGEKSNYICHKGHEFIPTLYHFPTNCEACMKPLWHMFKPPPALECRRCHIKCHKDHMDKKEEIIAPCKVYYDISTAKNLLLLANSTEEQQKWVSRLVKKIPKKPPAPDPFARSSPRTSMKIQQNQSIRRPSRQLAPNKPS
Simple rule here: IC50 less than 0.9 µM is met, otherwise not met.

Molecule	Target System	Class Label
COc1cccc(C(=O)NCc2cccc(C(=O)NCCc3ccncc3)c2)c1	Rho-associated protein kinase 2 (Homo sapiens, UniProt O75116)	not met
CN(C)Cc1ccc(NC(=O)c2cccc(CNC(=O)Nc3ccc(C#N)cc3)c2)cc1	Rho-associated protein kinase 2 (Homo sapiens, UniProt O75116)	met
N#Cc1cccc(NC(=O)NCc2cccc(C(=O)NCC3CCCO3)c2)c1 (racemic)	Rho-associated protein kinase 2 (Homo sapiens, UniProt O75116)	not met
COc1ccc(C(=O)NCc2cccc(C(=O)Nc3ccc(CO)cc3)c2)cc1OC	Rho-associated protein kinase 2 (Homo sapiens, UniProt O75116)	met
COc1ccc(C(=O)NCc2cccc(C(=O)NCCc3ccncc3)c2)cc1	Rho-associated protein kinase 2 (Homo sapiens, UniProt O75116)	not met
CCCNC(=O)c1cccc(CNC(=O)c2ccc(OC)c(OC)c2)c1	Rho-associated protein kinase 2 (Homo sapiens, UniProt O75116)	not met
COc1ccc(C(=O)NCc2cccc(C(=O)Nc3ccc4c(c3)CN(C)CC4)c2)cc1OC	Rho-associated protein kinase 2 (Homo sapiens, UniProt O75116)	met
COc1ccc(NC(=O)Nc2cccc(C(=O)NCCC3CCCNC3)c2)cc1OC (stereo not given)	Rho-associated protein kinase 2 (Homo sapiens, UniProt O75116)	not met
CN(C)Cc1ccc(NC(=O)c2cccc(CNC(=O)c3ccc(O)c(O)c3)c2)cc1	Rho-associated protein kinase 2 (Homo sapiens, UniProt O75116)	not met
N#Cc1ccc(NC(=O)NCc2cccc(C(=O)NCCC3CCCNC3)c2)cc1 (stereo not given)	Rho-associated protein kinase 2 (Homo sapiens, UniProt O75116)	met

###

Assay: Solubility at pH 4.5
Assay type: physicochemical
Settings: buffer
Endpoint: solubility

1) COc1ccc(C(=O)NCc2cccc(C(=O)NCCc3ccncc3)c2)cc1OC > 100 µg/mL

###

pIC50: −log10 of the molar value.
Below are compounds with their pIC50 as measured on Rho-associated protein kinase 2 (Homo sapiens, UniProt O75116).
Endpoint: pIC50

Mol	Reported
NC(=O)c1ccc(NC(=O)NCc2cccc(C(=O)Nc3ccc4c(c3)CNCC4)c2)cc1	8.40
COc1ccc(C(=O)NCc2cccc(C(=O)Nc3ccc(CN(C)C)cc3)c2)cc1OC	7.16
N#Cc1cccc(NC(=O)NCc2cccc(C(=O)NCCc3ccncc3)c2)c1	5.26
COc1ccc(C(=O)NCc2cccc(C(=O)NCCc3ccncc3)c2)cc1OC	5.64
N#Cc1ccc(NC(=O)NCc2cccc(C(=O)Nc3ccc4c(c3)CNCC4)c2)cc1	7.85

###

Assay: Permeability from apical to basolateral side in human Caco-2 cells
Type: ADME, cell-based
Conditions: Caco-2, read-out: permeability

Compound	Unit Name	Papp A→B
COc1ccc(C(=O)NCc2cccc(C(=O)NCCC3CCNCC3)c2)cc1OC	×10⁻⁶ cm/s	0.1
COc1ccc(C(=O)NCc2cccc(C(=O)Nc3ccc(CO)cc3)c2)cc1OC	×10⁻⁶ cm/s	0.6
COc1ccc(C(=O)NCc2cccc(C(=O)NCCc3ccncc3)c2)cc1OC	×10⁻⁶ cm/s	0.5
COc1ccc(C(=O)NCc2cccc(C(=O)NCCC3CCCNC3)c2)cc1OC (configuration not stated)	×10⁻⁶ cm/s	0.1
COc1ccc(C(=O)NCc2cccc(C(=O)Nc3ccc(CN(C)C)cc3)c2)cc1C	×10⁻⁶ cm/s	7.9
COc1ccc(C(=O)NCc2cccc(C(=O)Nc3ccc(CN(C)C)cc3)c2)cc1Cl	×10⁻⁶ cm/s	7.7
COc1ccc(C(=O)NCc2cccc(C(=O)Nc3ccc4c(c3)CN(C)CC4)c2)cc1OC	×10⁻⁶ cm/s	0.3
